Test: qHTS assay for small molecule disruptors of the mitochondrial membrane potential (AID 720635)
Settings: HepG2 mitochondrial membrane potential, Mito-MPS dye ratio; series mostly up to 83.2 µM
Records with an inconclusive call do not appear. Active and inactive are the calls of the source. Calls come from the whole dose curve; as a rule, active = well fitted inhibition curve with a large enough effect in the signal ratio in the repeat runs; inconclusive = weak or mixed curves, or effect the other way; inactive = flat fitted curve, though single readings scatter; the % refers to the signal ratio.
Classes used: 1 (active), -1 (inactive)

| compound | cat |
| --- | --- |
| CCN(CC)c1ccc(N=Nc2ccc(S(=O)(=O)N(C)C)cc2)c(S(=O)(=O)NCC[n+]2ccccc2)c1 | -1 |
| CCCCC(=O)OCC(=O)[C@]1(O)Cc2c(O)c3c(c(O)c2[C@@H](O[C@H]2C[C@H](NC(=O)C(F)(F)F)[C@H](O)[C@H](C)O2)C1)C(=O)c1c(OC)cccc1C3=O | 1 |
| COc1ccc(C(=O)Nc2ccccc2CCC2CCCCN2C)cc1 (configuration not stated) | -1 |
| C[C@]12C=CC(=O)C=C1CC[C@@H]1[C@@H]2[C@@H](O)C[C@@]2(C)[C@H]1CC[C@]2(O)C(=O)COC(=O)CCC(=O)O | -1 |
| C[N@+]12CCCC[C@@H]1CCC(=C(c1cccs1)c1cccs1)C2 | -1 |
| CCCCCCCCCCCCCCCCCCOP(=O)([O-])OC1CC[N+](C)(C)CC1 | -1 |
| CNC(=O)[C@H](Cc1c[nH]c2ccccc12)NC(=O)[C@@H](CC(=O)NO)CC(C)C | -1 |
| Cc1cc(Nc2ccccc2C(=O)O)ccc1Cl | 1 |
| CO[C@H]1C[C@@H]2CC[C@@H](C)[C@@](O)(O2)C(=O)C(=O)N2CCCC[C@H]2C(=O)O[C@H]([C@H](C)C[C@@H]2CC[C@@H](OC(=O)C(C)(CO)CO)[C@H](OC)C2)CC(=O)[C@H](C)/C=C(\C)[C@@H](O)[C@@H](OC)C(=O)[C@H](C)C[C@H](C)/C=C/C=C/C=C/1C | -1 |
| CCCOc1ccc2nc(NC(=O)OC)sc2c1 | 1 |
| CC(=O)OCC(=O)[C@@]12OC3(CCCC3)O[C@@H]1C[C@H]1[C@@H]3CCC4=CC(=O)C=C[C@]4(C)[C@@]3(F)[C@@H](O)C[C@@]12C | 1 |
| COc1ccc(CC2c3cc(OC)c(OC)cc3CC[N+]2(C)CCC(=O)OCCCCCOC(=O)CC[N+]2(C)CCc3cc(OC)c(OC)cc3C2Cc2ccc(OC)c(OC)c2)cc1OC (configuration not stated) | -1 |
| COc1cc(/C=C/C(=O)N2CCN(CC(=O)N3CCCC3)CC2)cc(OC)c1OC | -1 |
| C[C@H](CSC(=O)c1ccccc1)C(=O)N1C[C@@H](Sc2ccccc2)C[C@H]1C(=O)O | -1 |
| CO[C@H]1O[C@@H]2O[C@@]3(C)CC[C@H]4[C@H](C)CC[C@@H]([C@H]1C)[C@@]24OO3 | -1 |
| CCCCCCCCCCCCCCCCOCCOCCOCCOCCOCCOCCOCCOCCOCCOCCOCCOCCOCCOCCOCCOCCOCCOCCOCCOCCO | 1 |
| FCOC(C(F)(F)F)C(F)(F)F | -1 |
| CC1=C(C(=O)OCCN(Cc2ccccc2)c2ccccc2)C(c2cccc([N+](=O)[O-])c2)C(P2(=O)OCC(C)(C)CO2)=C(C)N1 (configuration not stated) | 1 |
| CC(C)C(=O)OCC(=O)[C@@]12O[C@H](C3CCCCC3)O[C@@H]1C[C@H]1[C@@H]3CCC4=CC(=O)C=C[C@]4(C)[C@H]3[C@@H](O)C[C@@]12C | 1 |
| COC(=O)CCC[N+](C)(C)C | -1 |
| CC(C)CN(C[C@@H](OP(=O)(O)O)[C@H](Cc1ccccc1)NC(=O)O[C@H]1CCOC1)S(=O)(=O)c1ccc(N)cc1 | -1 |
| CC(=O)N[C@@H]([C@@H](O)[C@H](O)[C@H](O)CO)[C@@H](O)CC(=O)C(=O)O | -1 |
| CN[C@@H]1[C@H](O[C@H]2[C@H](O[C@H]3[C@H](O)[C@@H](O)[C@H](N=C(N)N)[C@@H](O)[C@@H]3N=C(N)N)O[C@@H](C)[C@]2(O)C=O)O[C@@H](CO)[C@H](O)[C@H]1O | -1 |
| C=C1CC2C3CCC4=CC(=O)C=C[C@]4(C)[C@@]3(F)[C@@H](O)C[C@]2(C)[C@@]1(O)C(=O)COC(C)=O (some centres not stated) | -1 |
| O=C(Nc1ccc(O)cc1)c1ccccc1O | 1 |
| C[C@]12CC[C@@H]3c4ccc(OC(=O)c5ccccc5)cc4CC[C@H]3[C@@H]1CC[C@@H]2O | 1 |
| N[C@H](CC(=O)O)C(=O)O | -1 |
| CCN(CC)c1ccc(C(=C2C=CC(=[N+](CC)CC)C=C2)c2ccccc2)cc1 | 1 |
| Cn1nnnc1SCC1=C(C(=O)O)N2C(=O)[C@@H](NC(=O)[C@H](OC=O)c3ccccc3)[C@H]2SC1 | -1 |
| CO[C@H]1C[C@H](O[C@H]2[C@H](C)O[C@@H](O[C@@H]3/C(C)=C/C[C@@H]4C[C@@H](C[C@]5(C=C[C@H](C)[C@@H](C6CCCCC6)O5)O4)OC(=O)[C@@H]4C=C(C)[C@@H](O)[C@H]5OC/C(=C\C=C\[C@@H]3C)[C@]54O)C[C@@H]2OC)O[C@@H](C)[C@@H]1O | 1 |
| CN1CC(O)c2cc(N=NC(N)=O)c(O)cc21 (configuration not stated) | -1 |
| CC1(C)N=C(N)N=C(N)N1c1ccc(Cl)cc1 | -1 |
